molecular target: T1, human CD3ε/δ-Fc fusion protein (soluble recombinant CD3ε/δ complex) (human, UniProt P04234 22-105); assay: SPR single point, hybridoma supernatant
T1 construct: also called huCD3ε/δ; huCD3; not shown: hinge, CH2, CH3 of human IgG with tag
T1 sequence (chain, as listed by the source mutant, chain 1 of 2): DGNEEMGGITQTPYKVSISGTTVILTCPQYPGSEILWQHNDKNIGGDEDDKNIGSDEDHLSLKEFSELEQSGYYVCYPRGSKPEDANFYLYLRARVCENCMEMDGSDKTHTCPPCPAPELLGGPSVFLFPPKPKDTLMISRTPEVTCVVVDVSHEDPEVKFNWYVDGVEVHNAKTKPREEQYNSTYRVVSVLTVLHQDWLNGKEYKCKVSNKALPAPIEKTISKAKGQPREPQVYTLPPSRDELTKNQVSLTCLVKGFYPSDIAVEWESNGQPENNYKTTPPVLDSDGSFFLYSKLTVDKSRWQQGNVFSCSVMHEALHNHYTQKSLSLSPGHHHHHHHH
T1 sequence (P04234 22-105, stated change not applied, chain 2 of 2): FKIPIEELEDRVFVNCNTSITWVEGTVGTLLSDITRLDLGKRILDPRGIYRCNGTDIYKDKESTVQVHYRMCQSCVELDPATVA
We use 10 RU as the dividing line for RU at 25 nM: on or above the line is Y, below is N.

Lookup: Decide: RU at 25 nM of 20E5-F10 anti-CD3 antibody (hybridoma supernatant) (antibody, V domains shown, rat IgG in hybridoma supernatant) VH: EVQLVETGENLVQPGKSLRLTCATSGFSFSNAWMHWIRQSPEKQLEWVAQIKDKSNNYATYYAESVNGRFTISRDDSKSSIYLHMDNLKEEDSAIYYCRYVHYGVRFFYTMDVWGQGTSVTVSS VL: DVVMTQTPVSLSVSLGDQVSISCRPSQSLVHNNGNTYLSWYLQKPGQSPHPLIYKVSNRFSGISDRFSGSGSGTDFTLKISRVEPDDLGVYYCGQGTQYPFTFGSGTKLEIK >= 10 RU?
Found: Y

Lookup: Do the same for 10F4-C10 anti-CD3 antibody (hybridoma supernatant) (antibody, V domains shown, rat IgG in hybridoma supernatant) VH: EVQLVETGGSLVQPGKSLKITCATSGFTFSNAWMHWVRQSPEKQLEWVAQIKAKSNNYATYYAESVKGRFTISRDDSKSSIYLQMNSLKEEDTAIYYCRAVNYGNYPLDYWGQGVMVTVSS VL: DVVMTQTPVSLSVSLGGQVSISCRSSQSLVHNNGNTYLSWCLQKPGQSPQLLIYKVSNRFSGISDRFSGSGSGTDFTLKISRVEPDDLGVYYCGQGTQYPFTFGAGTKLELK please
Found: Y

Lookup: Do the same for 10E6-G6 anti-CD3 antibody (hybridoma supernatant) (antibody, V domains shown, rat IgG in hybridoma supernatant) VH: EVQLVETGGGLVQSGKSLKLTCATSGFTVTNAWMHWVRQSPEKQLEWVAQIKAKSNNYETYYAESVKGRFTISRDDSKSSVYLQMNSLKEEDTAIYYCRGTQYGYNPFDYWGQGVMVTVSS VL: DVVMTQSPVSLSVSLGGQVSISCRSSQSLVHNNGYTYLSWYLQKPGQSPQVFIYKVSNRFSGISDRFSGSGSGTDFTLKISRIEPDDLGVYYCGQGTHYPFTFGSGTKLEIK please
Found: Y

Lookup: Do the same for 11F3-B9 anti-CD3 antibody (hybridoma supernatant) (antibody, V domains shown, rat IgG in hybridoma supernatant) VH: EVQLVETGGSLVQPGKSLTLTCATSGFTFSNAWMHWVRQSPEKQLEWVAQIKAKSNNYATYYAESVKGRFTISRDDSKRSVYLQMNSLKEEDTAIYYCRYVNYGLAPMDVWGQGTSVTVSS VL: DVVMTQTPVSLSVSLGGQVSISCRSSQSLVHDNGNTYLSWYLQKPGQSPQLLIYKVSNRFSGFSDRFSGSGSGTDFTLKISRVEPDDLGVYYCGQGTQYPFTFGAGTKLELK please
Found: Y

Lookup: Do the same for 11F9-F8 anti-CD3 antibody (hybridoma supernatant) (antibody, V domains shown, rat IgG in hybridoma supernatant) VH: EVQLVETGGTLVQPGKSLKLTCATSGFTFSNAWMHWVRQSPEKQLEWVAQIKAKSNNYATYYAESVKGRFTISRDDSKTSVYLQLNSLREEDTAIYYCRGTQYGYNPFDYWGQGVMVTVSS VL: DVVLTQTPVSLSVSLGGQVSISCRSSQSLVHNNGNTYLSWSLQKPGQSPQVLIYKVSNRFSGISNRFSGSGSGTDFTLKISRVEPDDLGVYYCGQGAHYPFTFGSGTKLEIK please
Found: Y

Lookup: Do the same for 6C9-C9 anti-CD3 antibody (hybridoma supernatant) (antibody, V domains shown, rat IgG in hybridoma supernatant) VH: AVQLVESGGGLVRPKESLKISCAASGFTFRNAAMYWVRQAPGKGLEWVARIRTQPNNYAKYYADSVKDRFTISRDDSKSMVYLQMDNLKTEDTAMYYCTGLVVTAMDAWGQGTSVTVSS VL: DIQMTQSPSFLSASVGDRVTINCKASQNINKYLNWYQQKLGEAPKLLIYVTNNLQTGIPSRFSGSGSGTDYTLTISSLQPEDVATYFCLQHRSMYTFGTGTKLELK please
Found: Y

Lookup: Do the same for 8H2-F3 anti-CD3 antibody (hybridoma supernatant) (antibody, V domains shown, rat IgG in hybridoma supernatant) VH: QIQLVQSGPELKKPGESVKISCKASGYTFTDFAMNWVKQAPGNGLKWMGWINTQTGKPTYADGFKQRFVFSLETSASTIYLQINNLNIEDTATYFCTRGALASVGQGVMVTVSS VL: DVVMTQTPVSLSVAIGQPASISCKSSQSLVGTSGKTYLNWLLQRPGQSPKRLIYLVSKLDSGIPDRFSGSGSETDFTLKISRVETDDLGVYYCLQGSHFPLTFGSGTKLEIK please
Found: Y

Lookup: Do the same for 18G9-H11 anti-CD3 antibody (hybridoma supernatant) (antibody, V domains shown, rat IgG in hybridoma supernatant) VH: EVQLVETGGSLVQPGKSLKLTCATSGFTFSNAWIQWVRQSPEKQLEWVAQIKAKSNNYATYYAESVKGRFTISRDDSKSSVYLQMNSLKEEDTALYYCTWRHYYSSHTMDAWGQGTLVTVSS VL: DVVMTQTPVSLSVSLGGQVSISCRSSQSLVHNNGNTYLSWYLQKPGQSPQLLIYKVSNRFSGISDRFSGSGSGTDFTLKISRVAPTDLGVYYCGQGSQYPFTFGAGTKLELK please
Found: N

Lookup: Do the same for 4E7-C9 anti-CD3 antibody (hybridoma supernatant) (antibody, V domains shown, rat IgG in hybridoma supernatant) VH: EVQVVETGGSLVQPGKSLKLTCATSGFTFSNAWMHWVRQSPEKQLEWVAQIKDKSNNYATYYAESLKGRFTISRDDPKRSIYLQMNSLREEDTAIYYCRYVHYGIGYAMDAWGQGTSVTVSS VL: DVVMTQTPVSLSVSLGGQVSISCRSSQSLEHNNGNTYLSWYLQKPGQSPQPLIYKVSNRFSGISDRFSGSGSGTDFTLKISRVEPDDLGVYYCGQGTQYPFTFGPGTKLELK please
Found: N

Lookup: Do the same for 12G3-E8 anti-CD3 antibody (hybridoma supernatant) (antibody, V domains shown, rat IgG in hybridoma supernatant) VH: EVRVVETGGSLVQPGKSLKLTCATSGFTFSLAWMHWVRQSPEKKLEWVAQIKDKANNYATYYAESVKGRFTISRDDSKRSVYLQMNRLKEEDTAIYYCRGVYYGFSMTPFDYWGQGVMVTVSS VL: DVAMTQTPVSLSVSLGGQVSISCRSSQSLVHNNGNTYLSWYLQKPGQSPQVLIYKVSNRFSGISDRFSGSGSGADFTLKISRVEPDDLGVYYCGQGTQYPFTFGAGTKLELK please
Found: Y

Where do these numbers come from? They come from patent US20210292423A1.
